Test system: DU-145
Test: Cytotoxicity against human DU145 cells after 72 hrs by trypan blue exclusion assay
Assay type: functional, cell-based
Conditions: DU-145, 72 h
Could you mark each record met if its EC50 falls strictly under 2 µM, and not met if it equals or exceeds it?

Completed entries (count: 4):
compound.smiles: CC[C@H]1OC(=O)[C@H](C)[C@@H](O)[C@H](C)[C@@H](O[C@@H]2O[C@H](C)C[C@H](N(C)Cc3ccc(-c4cn(CCCCCCC(=O)NO)nn4)cc3)[C@H]2O)[C@](C)(OC)C[C@@H](C)C(=O)[C@H](C)[C@@H](O)[C@]1(C)O
label: met

compound.smiles: CC[C@H]1OC(=O)[C@H](C)[C@@H](O[C@H]2C[C@@](C)(OC)[C@@H](O)[C@H](C)O2)[C@H](C)[C@@H](O[C@@H]2O[C@H](C)C[C@H](N(C)Cc3ccc(-c4cn(CCCCCCC(=O)NO)nn4)cc3)[C@H]2O)[C@](C)(O)C[C@@H](C)CN(C)[C@H](C)[C@@H](O)[C@]1(C)O
label: met

compound.smiles: CC[C@H]1OC(=O)[C@H](C)[C@@H](O[C@H]2C[C@@](C)(OC)[C@@H](O)[C@H](C)O2)[C@H](C)[C@@H](O[C@@H]2O[C@H](C)C[C@H](N(C)Cc3ccc(-c4cn(CCCCCCCCC(=O)NO)nn4)cc3)[C@H]2O)[C@](C)(O)C[C@@H](C)CN(C)[C@H](C)[C@@H](O)[C@]1(C)O
label: not met

compound.smiles: CC[C@H]1OC(=O)[C@H](C)[C@@H](O)[C@H](C)[C@@H](O[C@@H]2O[C@H](C)C[C@H](N(C)Cc3ccc(-c4cn(CCCCCCCC(=O)NO)nn4)cc3)[C@H]2O)[C@](C)(OC)C[C@@H](C)C(=O)[C@H](C)[C@@H](O)[C@]1(C)O
label: not met

**Q:** In the record for CC[C@H]1OC(=O)[C@H](C)[C@@H](O[C@H]2C[C@@](C)(OC)[C@@H](O)[C@H](C)O2)[C@H](C)[C@@H](O[C@@H]2O[C@H](C)C[C@H](N(C)Cc3ccc(-c4cn(CCCCCC(=O)NO)nn4)cc3)[C@H]2O)[C@](C)(OC)C[C@@H](C)C(=O)[C@H](C)[C@@H](O)[C@]1(C)O , is EC50 less than 2 µM?
**A:** not met
